Recorded below: pKi, system Carbonic anhydrase 2 (Homo sapiens).
pKi: −log10 of the molar value.
quantity kind: pKi

1) Cc1ccc(S(=O)(=O)Nc2ccc3ccccc3c2)cc1: 6.31
2) CC(=O)Oc1cccn1S(=O)(=O)c1ccc(C)cc1: 6.40
3) Cc1ccc(NS(=O)(=O)c2ccc(C)cc2)cc1 [Carbonic anhydrase inhibitors (CAIs), 1]: 6.45
4) Cc1ccc(S(=O)(=O)Nc2ccccc2[N+](=O)[O-])cc1: 6.42
5) CCc1ccc(NS(=O)(=O)c2ccc(C)cc2)cc1: 6.27
6) Cc1ccc(S(=O)(=O)Nc2ccccc2C#N)cc1: 6.22
7) Cc1ccc(S(=O)(=O)N(c2ccccc2)c2ccccc2)cc1: 6.34
8) Cc1ccc(S(=O)(=O)Nc2c(C)cc(C)cc2C)cc1: 6.54
